These entries and their values trace back to patent US11912668B2.

pIC50: −log10 of the molar value.
System: UniProtKB Q9NZJ5 | Read-out: pIC50

Please review the entries below; each comes with its answer.
CNc1ncc2cc(-c3cccc(NS(=O)(=O)c4cc(Cl)cnc4OC)c3F)c(NC)nc2n1; 6.30 to 7.00
CNc1nc2nc(NC3CCC3)ncc2cc1-c1cccc(NS(=O)(=O)c2cc(Cl)cnc2OC)c1F; 6.30 to 7.00
CNc1cc2nc(NC)c(-c3cccc(NS(=O)(=O)c4cc(Cl)cnc4OC)c3F)cc2cn1; ≥ 7.00
CNc1ncc2cc(-c3cccc(NS(=O)(=O)c4cc(OC)ccc4Cl)c3F)c(NC)nc2n1; ≥ 7.00
CNc1cc2nc(C)c(-c3cc(NS(=O)(=O)c4cc(Cl)cnc4OC)c(F)cc3F)cc2cn1; 6.00 to 6.30

# input Record CNc1ncc2cc(-c3cccc(NS(=O)(=O)c4cc(Cl)cnc4OC)c3F)c(NCCO)nc2n1 : what is its pIC50 with UniProtKB Q9NZJ5?
# output 6.30 to 7.00

# input Repeat with CNc1cc2nc(C)c(-c3cc(NS(=O)(=O)c4cc(Cl)cnc4OC)c(F)cc3Br)cc2cn1
# output 5.00 to 6.00

# input Repeat with CNc1ncc2cc(-c3cccc(NS(=O)(=O)c4cc(Cl)cnc4OC)c3C)ccc2n1
# output 6.30 to 7.00

# input Repeat with CNc1nc2nc(NC(C)=O)ncc2cc1-c1cccc(NS(=O)(=O)c2cc(Cl)cnc2OC)c1F
# output 6.30 to 7.00

# input Repeat with CNc1nc2nc(N)ncc2cc1-c1ccnc(NS(=O)(=O)c2cc(Cl)cnc2OC)c1F
# output 6.30 to 7.00

----------
Tested on: CCRF-CEM leukemia cells
assay procedure: CCRF-CEM ASNase cell proliferation assay, phenotypic assay for cellular inhibition of GCN2
Type: cell-based
measurement parameters: Homo sapiens; ASNase treated CCRF-CEM cells, 1 mU/mL ASNase, 72 h
reported property: IC50

CNc1nc2nc(NC(C)=O)ncc2cc1-c1cccc(NS(=O)(=O)c2cc(Cl)cnc2OC)c1F; ≤ 100 nM
COc1ncc(Cl)cc1S(=O)(=O)Nc1cc(F)cc(-c2cc3cnc(N)nc3nc2N)c1; ≤ 100 nM
CNc1cc2ncc(-c3cccc(NS(=O)(=O)c4cc(Cl)cc(CO)c4Cl)c3F)cc2cn1; 1000 to 10000 nM
CNc1ncc2cc(-c3cc(NS(=O)(=O)c4cc(Cl)cnc4OC)cc(F)c3F)c(C)nc2n1; 100 to 500 nM
CNc1ncc2cc(-c3cc(F)cc(NS(=O)(=O)c4cc(Cl)cc(CO)c4Cl)c3)c(NC)nc2n1; ≤ 100 nM

# input Dear colleague, I am looking for the recorded IC50 of the following compound: Cc1nc2cc(N)ncc2cc1-c1cccc(NS(=O)(=O)c2cc(Cl)cc(CO)c2Cl)c1F
# output ≤ 100 nM

# input Repeat with CNc1ncc2cc(-c3cccc(NS(=O)(=O)c4cccc(CO)c4Cl)c3F)c(NC)nc2n1
# output ≤ 100 nM

# input Repeat with CNc1cc2nc(C)c(-c3cc(F)cc(NS(=O)(=O)c4cc(Cl)cnc4OC)c3)cc2cn1
# output 100 to 500 nM

# input Repeat with COc1ncc(Cl)cc1S(=O)(=O)Nc1cccc(-c2cc3cnc(NC(C)=O)cc3nc2C)c1F
# output ≤ 100 nM

# input Repeat with CNc1nc2nc(NC3CC3)ncc2cc1-c1cccc(NS(=O)(=O)c2cc(Cl)cnc2OC)c1F
# output 100 to 500 nM

# input Repeat with CNc1nc2nc(NC(C)C)ncc2cc1-c1cccc(NS(=O)(=O)c2cc(Cl)cnc2OC)c1F
# output 100 to 500 nM

----------
System: GCN2 kinase (Homo sapiens (Human)) | Read-out: IC50
Sequence (Q9P2K8 whole entry): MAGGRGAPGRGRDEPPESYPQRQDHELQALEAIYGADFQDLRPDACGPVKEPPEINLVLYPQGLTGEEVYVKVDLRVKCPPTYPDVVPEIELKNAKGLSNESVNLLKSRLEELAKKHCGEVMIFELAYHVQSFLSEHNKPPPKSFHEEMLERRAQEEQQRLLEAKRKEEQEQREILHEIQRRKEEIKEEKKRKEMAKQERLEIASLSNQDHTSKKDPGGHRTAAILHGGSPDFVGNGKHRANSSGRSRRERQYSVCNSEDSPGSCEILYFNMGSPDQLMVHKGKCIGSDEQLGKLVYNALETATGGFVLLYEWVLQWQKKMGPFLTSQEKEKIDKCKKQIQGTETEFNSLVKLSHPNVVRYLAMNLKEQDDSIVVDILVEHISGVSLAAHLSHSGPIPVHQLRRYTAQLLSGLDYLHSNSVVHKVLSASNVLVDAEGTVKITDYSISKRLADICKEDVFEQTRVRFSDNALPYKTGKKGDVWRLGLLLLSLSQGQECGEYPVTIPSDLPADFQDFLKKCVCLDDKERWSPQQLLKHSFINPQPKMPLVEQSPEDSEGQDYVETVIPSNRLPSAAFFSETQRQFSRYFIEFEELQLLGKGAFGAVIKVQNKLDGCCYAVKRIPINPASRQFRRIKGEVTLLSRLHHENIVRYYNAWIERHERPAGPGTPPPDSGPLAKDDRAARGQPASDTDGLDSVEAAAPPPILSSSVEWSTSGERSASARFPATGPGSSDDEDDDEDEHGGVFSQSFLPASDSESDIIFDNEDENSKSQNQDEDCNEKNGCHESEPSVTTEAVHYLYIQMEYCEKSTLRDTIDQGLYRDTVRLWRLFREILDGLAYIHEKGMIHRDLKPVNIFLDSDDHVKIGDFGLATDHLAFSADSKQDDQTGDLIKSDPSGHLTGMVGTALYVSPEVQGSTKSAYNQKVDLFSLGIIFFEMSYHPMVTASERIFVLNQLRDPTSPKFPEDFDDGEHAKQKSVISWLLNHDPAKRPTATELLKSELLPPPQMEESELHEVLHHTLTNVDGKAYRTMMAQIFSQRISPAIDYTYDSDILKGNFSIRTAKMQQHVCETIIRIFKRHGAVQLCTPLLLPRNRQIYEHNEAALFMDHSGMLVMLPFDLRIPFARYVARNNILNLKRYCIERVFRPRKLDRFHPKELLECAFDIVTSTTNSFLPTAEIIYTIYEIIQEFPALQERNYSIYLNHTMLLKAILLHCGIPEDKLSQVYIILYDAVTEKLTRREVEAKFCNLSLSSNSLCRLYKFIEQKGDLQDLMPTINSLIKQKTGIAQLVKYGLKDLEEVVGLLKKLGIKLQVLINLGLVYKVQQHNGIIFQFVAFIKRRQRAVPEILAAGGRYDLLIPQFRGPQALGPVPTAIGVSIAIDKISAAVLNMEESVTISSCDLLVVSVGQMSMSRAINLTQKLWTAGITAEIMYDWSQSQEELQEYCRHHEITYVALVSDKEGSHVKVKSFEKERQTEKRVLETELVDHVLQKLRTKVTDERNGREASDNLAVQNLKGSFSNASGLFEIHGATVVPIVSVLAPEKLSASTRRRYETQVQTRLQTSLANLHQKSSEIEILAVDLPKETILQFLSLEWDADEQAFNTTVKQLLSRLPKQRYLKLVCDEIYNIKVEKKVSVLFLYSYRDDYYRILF

Please review the entries below; each comes with its answer.
CNc1ncc2cc(-c3cccc(NS(=O)(=O)c4cc(Cl)cnc4OC)c3Cl)c(C)nc2n1; ≤ 100 nM
CNc1ncc2cc(-c3cc(NS(=O)(=O)c4cc(Cl)cnc4OC)ccc3C)c(C)nc2n1; ≤ 100 nM
CNc1ncc2cc(-c3cccc(NS(=O)(=O)c4cc(Cl)cnc4OC)c3)ccc2n1; 1000 to 10000 nM
CNc1nc2nc(NC(C)=O)ncc2cc1-c1cc(F)cc(NS(=O)(=O)c2cc(Cl)cnc2OC)c1; ≤ 100 nM
CNc1ncc2cc(-c3cc(NS(=O)(=O)c4cc(Cl)cnc4OC)ccc3C)cnc2n1; ≤ 100 nM
CNc1ncc2cc(-c3c(F)ccc(NS(=O)(=O)c4cc(Cl)cnc4OC)c3F)c(C)nc2n1; ≤ 100 nM
CNc1ncc2cc(-c3cccc(NS(=O)(=O)c4ccc(Cl)cc4OC)c3F)c(NC)nc2n1; 100 to 500 nM

# input Dear colleague, I am looking for the recorded IC50 of the following molecule: CNc1ncc2cc(-c3cc(NS(=O)(=O)c4cc(Cl)cnc4OC)ccc3F)c(C)nc2n1
# output ≤ 100 nM

----------
System: UniProt Q9NZJ5 | Read-out: pIC50
pIC50: −log10 of the molar value.

Please review the entries below; each comes with its answer.
COc1ncc(Cl)cc1S(=O)(=O)Nc1cccc(-c2cc3cnc(N)cc3nc2C)c1Cl; ≥ 7.00
CNc1ncc2cc(-c3cccc(NS(=O)(=O)c4cc(Cl)cnc4OC)c3F)c(C)nc2n1; ≥ 7.00
CNc1nc2nc(NC(C)C)ncc2cc1-c1cccc(NS(=O)(=O)c2cc(Cl)cnc2OC)c1F; 6.30 to 7.00

# input Record CNc1cc2nc(C)c(-c3cc(NS(=O)(=O)c4cc(Cl)cc(CO)c4Cl)c(F)cc3Br)cc2cn1 : what is its pIC50 with UniProt Q9NZJ5?
# output 6.30 to 7.00

# input Repeat with CNc1cc2nc(C)c(-c3cc(F)cc(NS(=O)(=O)c4cc(Cl)cc(CO)c4Cl)c3)cc2cn1
# output ≥ 7.00

# input Repeat with CNc1ncc2cc(-c3cccc(NS(=O)(=O)c4cc(F)cc(CO)c4Cl)c3F)c(NC)nc2n1
# output 6.30 to 7.00

# input Repeat with CNc1nc2nc(NC(C)=O)ncc2cc1-c1cc(F)cc(NS(=O)(=O)c2cc(Cl)cnc2OC)c1
# output 6.30 to 7.00

# input Repeat with CNc1ncc2cc(-c3cccc(NS(=O)(=O)c4cc(Br)cnc4OC)c3F)c(NC)nc2n1
# output 6.30 to 7.00

----------
Test system: ATF4 in CCRF-CEM leukemia cells (PERK)
assay procedure: CCRF-CEM TG ATF4 ELISA, phenotypic assay for cellular inhibition of PERK preactivated by thapsigargin
Format: cell-based
measurement parameters: Homo sapiens; Thapsigargin (1 μM) stimulated CCRF-CEM cells
reported property: IC50

Please review the entries below; each comes with its answer.
COc1ncc(Cl)cc1S(=O)(=O)Nc1cccc(-c2cnc3cc(N)ncc3c2)c1F; 1000 to 10000 nM
CNc1nc2nc(NC(C)=O)ncc2cc1-c1cc(F)cc(NS(=O)(=O)c2cc(Cl)cnc2OC)c1; 1000 to 10000 nM
CNc1ncc2cc(-c3cccc(NS(=O)(=O)c4cc(F)cc(CO)c4Cl)c3F)c(NC)nc2n1; 100 to 500 nM

# input Record CNc1ncc2cc(-c3cccc(NS(=O)(=O)c4cc(Cl)cnc4OC)c3F)ccc2n1 : what is its IC50 with ATF4 in CCRF-CEM leukemia cells (PERK)?
# output 1000 to 10000 nM

# input Repeat with COc1ncc(Cl)cc1S(=O)(=O)Nc1cc(F)cc(-c2cc3cnc(Nc4cnn(C)c4)nc3nc2C)c1
# output 1000 to 10000 nM

# input Repeat with CNc1cc2ncc(-c3cccc(NS(=O)(=O)c4cc(Cl)cnc4OC)c3F)cc2cn1
# output 500 to 1000 nM

# input Repeat with CNc1ncc2cc(-c3cccc(NS(=O)(=O)c4cc(Cl)cnc4OC)c3C)c(C)nc2n1
# output 1000 to 10000 nM

# input Repeat with CNc1cc2ncc(-c3cccc(NS(=O)(=O)c4cc(Cl)cc(CO)c4Cl)c3F)cc2cn1
# output ≤ 100 nM

----------
assay target: PERK kinase (Homo sapiens (Human), UniProt Q9NZJ5)
Sequence (Q9NZJ5 other isoform, or with tags, fused parts or gaps): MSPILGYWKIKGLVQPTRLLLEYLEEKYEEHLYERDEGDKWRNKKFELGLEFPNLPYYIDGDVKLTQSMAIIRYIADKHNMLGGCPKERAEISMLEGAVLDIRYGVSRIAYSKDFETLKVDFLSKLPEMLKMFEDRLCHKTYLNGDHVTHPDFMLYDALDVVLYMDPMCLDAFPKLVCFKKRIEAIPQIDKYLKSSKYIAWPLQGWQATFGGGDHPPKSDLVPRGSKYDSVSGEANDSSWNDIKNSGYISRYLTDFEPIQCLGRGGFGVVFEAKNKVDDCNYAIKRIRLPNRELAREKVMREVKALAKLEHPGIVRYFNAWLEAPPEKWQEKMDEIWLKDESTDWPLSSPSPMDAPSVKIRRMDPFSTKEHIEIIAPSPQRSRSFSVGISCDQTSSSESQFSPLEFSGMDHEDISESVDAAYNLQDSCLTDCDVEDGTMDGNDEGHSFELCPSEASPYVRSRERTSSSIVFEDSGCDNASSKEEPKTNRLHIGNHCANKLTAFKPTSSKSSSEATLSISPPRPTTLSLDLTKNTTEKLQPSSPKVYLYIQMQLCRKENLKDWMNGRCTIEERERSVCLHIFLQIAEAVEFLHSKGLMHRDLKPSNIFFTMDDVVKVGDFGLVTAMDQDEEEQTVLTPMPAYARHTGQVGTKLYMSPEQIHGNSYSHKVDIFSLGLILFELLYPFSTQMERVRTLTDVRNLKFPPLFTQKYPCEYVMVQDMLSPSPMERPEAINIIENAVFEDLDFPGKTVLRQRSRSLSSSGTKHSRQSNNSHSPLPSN
Listed here: items and their measured IC50.

Please review the entries below; each comes with its answer.
COc1nc2nc(N)ncc2cc1-c1cccc(NS(=O)(=O)c2cc(Cl)cnc2OC)c1F [Example 165]; ≤ 100 nM
CNc1ncc2cc(-c3cc(F)cc(NS(=O)(=O)c4cc(Cl)cc(CO)c4Cl)c3)c(NC)nc2n1 [Example 57]; ≤ 100 nM
COc1ncc(Cl)cc1S(=O)(=O)Nc1cccc(-c2ccc3cc(N)ncc3c2)c1F [Example 29]; ≤ 100 nM
CNc1ncc2cc(-c3ccc(F)c(NS(=O)(=O)c4cc(Cl)cnc4OC)c3)c(C)nc2n1 [Example 20]; 1000 to 10000 nM
CNCCNc1nc2nc(NC)ncc2cc1-c1cccc(NS(=O)(=O)c2cc(Cl)cnc2OC)c1F [Example 101]; 1000 to 10000 nM
CNc1ncc2cc(-c3cccc(NS(=O)(=O)c4cc(Cl)cc(C(C)(C)O)c4Cl)c3F)c(NC)nc2n1 [Example 74]; 100 to 500 nM
CNc1ncc2cc(-c3cc(F)cc(NS(=O)(=O)c4cc(Cl)cnc4OC)c3)c(OC)nc2n1 [Example 103]; 100 to 500 nM

Kindly review the next molecule as well.
# input Dear colleague, I am looking for the recorded IC50 of the following molecule: CNc1ncc2cc(-c3cccc(NS(=O)(=O)c4cc(Cl)cc(C(N)=O)c4Cl)c3F)c(NC)nc2n1 [Example 112]
# output 1000 to 10000 nM
